Molecular target: T1, soluble αVβ6 headpiece, disulfide-linked (αV headpiece residues 1-594 with M400C); β6 headpiece residues 1-474 … (UniProt P06756 31-624; P18564 18-491, Interchain disulfide between αV Cys-400 and β6 Cys-270.)
T1 alpha: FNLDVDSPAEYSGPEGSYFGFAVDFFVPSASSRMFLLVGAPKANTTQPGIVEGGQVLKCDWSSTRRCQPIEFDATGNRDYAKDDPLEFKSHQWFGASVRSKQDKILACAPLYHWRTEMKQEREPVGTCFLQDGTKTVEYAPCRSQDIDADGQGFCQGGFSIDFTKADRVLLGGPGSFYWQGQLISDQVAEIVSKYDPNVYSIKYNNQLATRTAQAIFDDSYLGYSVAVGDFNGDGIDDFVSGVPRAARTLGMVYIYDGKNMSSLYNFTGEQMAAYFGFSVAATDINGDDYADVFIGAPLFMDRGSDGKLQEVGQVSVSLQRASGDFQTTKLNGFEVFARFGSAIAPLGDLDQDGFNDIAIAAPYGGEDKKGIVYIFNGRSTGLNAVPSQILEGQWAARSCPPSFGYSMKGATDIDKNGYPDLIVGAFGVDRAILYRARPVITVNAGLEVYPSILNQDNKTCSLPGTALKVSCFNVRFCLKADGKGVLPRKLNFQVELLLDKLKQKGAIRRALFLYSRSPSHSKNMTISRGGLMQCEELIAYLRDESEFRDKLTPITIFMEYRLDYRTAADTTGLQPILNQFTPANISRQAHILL
T1 beta: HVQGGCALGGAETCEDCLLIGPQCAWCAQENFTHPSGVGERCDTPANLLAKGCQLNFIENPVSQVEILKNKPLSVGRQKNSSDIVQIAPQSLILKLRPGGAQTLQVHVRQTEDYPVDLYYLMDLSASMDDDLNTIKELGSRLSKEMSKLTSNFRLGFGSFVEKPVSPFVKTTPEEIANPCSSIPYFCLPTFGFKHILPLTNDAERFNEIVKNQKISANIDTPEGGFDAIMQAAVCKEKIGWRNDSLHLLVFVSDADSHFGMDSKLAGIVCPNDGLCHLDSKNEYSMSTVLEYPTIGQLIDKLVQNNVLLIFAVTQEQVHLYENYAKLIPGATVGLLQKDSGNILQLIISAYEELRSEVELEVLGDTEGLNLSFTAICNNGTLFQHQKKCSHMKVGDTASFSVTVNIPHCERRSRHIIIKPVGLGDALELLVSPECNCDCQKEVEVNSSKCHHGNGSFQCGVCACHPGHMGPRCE
Experiment: fluorescence anisotropy; pH 5.0
Ends that are not written are not given here. * marks the point of attachment. FITC = O=C1OC2(c3ccc(O)cc3Oc3cc(O)ccc32)c2ccc(NC(=S)*)cc21

| binder | Kd, µM |
| --- | --- |
| {FITC}-GRGDLGRL (also called the probe) [FITC-GRGDLGRL (FITC-pro-TGF-β3 peptide, fluorescence probe)] | 3.81 |
